Test system: PKGIα (analogue-sensitive M438G), disulfide-activated
Assay: Chemical genetic phosphoproteomic screen, disulfide-activated PKGIα M438G versus unactivated control
Format: biochemical, human PKGIα; substrates in rat heart homogenate
Details: control = PKGIα C42S/M438G
Where no end group is shown, it is not given here. [ ]: non-standard residue; d: D form. Met(O) = CS(=O)CC[C@H](N)C(=O)O; pS = N[C@@H](COP(=O)(O)O)C(=O)O
A collection of substances and their measured log2 fold change Disulfide vs Control
Lab note: jot down the number only; don't add units.

Solved cases below.
Rnf123 pS690 (FLSTAAVSL[Met(O)]TPR; also: phosphoserine, site not given here)	-1.634
Pln pS16 (RA[pS]TIEMPQQAR; not fully specified (residue 7))	0.4097
Mybbp1a pS1318 (ARLSLVSR; also: phosphoserine (pS1318), site in peptide not given here)	-0.09923
Mylk3 pS155 (KG[pS]LADGPEENKEQAEVAGVKPK)	1.131
Nucb1 pS368 (AQRL[pS]QETEALGR)	3.208
Mrps31 pS191 (RVSFTQIISNMK; also: phosphoserine (pS191), site in peptide not given here)	0.1676

Would you kindly look at the next entry?
Task: Fill in the recorded log2 fold change Disulfide vs Control for this substance, with PKGIα (analogue-sensitive M438G), disulfide-activated as test system: Nucb2 pS85 (SGRLSQELDLVSHK; also: phosphoserine (pS85), site in peptide not given here)
Result: -0.4443

* * *

A collection of substances and their measured log2 fold change Disulfide vs Control
System: PKGIα (analogue-sensitive M438G), disulfide-activated
Assay: Chemical genetic phosphoproteomic screen, disulfide-activated PKGIα M438G versus unactivated control
Type: biochemical, human PKGIα; substrates in rat heart homogenate
Conditions: control = PKGIα C42S/M438G
Where no end group is shown, it is not given here. [ ]: non-standard residue; d: D form. pT = C[C@@H](OP(=O)(O)O)[C@H](N)C(=O)O; pS = N[C@@H](COP(=O)(O)O)C(=O)O
Lab note: jot down the number only; don't add units.

Olr1571 pS170 (AISSSQGK; also: phosphoserine (pS170), site in peptide not given here)	-1.218

Task: For the substance Mink1 pS997 (KG[pS]VVNVNPTNTR) , what log2 fold change Disulfide vs Control is on record?
Result: 0.583

Task: For the substance Pcnp pS95 (KASAISIR; also: phosphoserine (pS95), site in peptide not given here) , what log2 fold change Disulfide vs Control is on record?
Result: 0.1824

Task: For the substance Set pS7 (RQ[pS]AILPQPK) , what log2 fold change Disulfide vs Control is on record?
Result: 1.764

Task: For the substance Trmt10c pT377 (RKH[pT]GYLEVPEHSQAAFR) , what log2 fold change Disulfide vs Control is on record?
Result: 0.4487

Task: For the substance Prkcdbp pS199 (KG[pS]EAAQPTPVKPPR) , what log2 fold change Disulfide vs Control is on record?
Result: 1.3478

Task: For the substance Mthfd1 pT545 (KITIGQAPTEK; also: phosphothreonine (pT545), site in peptide not given here) , what log2 fold change Disulfide vs Control is on record?
Result: 1.475

These entries and their values trace back to paper PMC5095173.
